Where these numbers come from: patent US20230167182A1

- MEASURED_ON: T1, recombinant human IL6R-his (human, UniProt P08887 20-365)
- T1 construct: In house made; the entry includes the C-terminal His tag; also called human IL6R-his protein
- T1 sequence: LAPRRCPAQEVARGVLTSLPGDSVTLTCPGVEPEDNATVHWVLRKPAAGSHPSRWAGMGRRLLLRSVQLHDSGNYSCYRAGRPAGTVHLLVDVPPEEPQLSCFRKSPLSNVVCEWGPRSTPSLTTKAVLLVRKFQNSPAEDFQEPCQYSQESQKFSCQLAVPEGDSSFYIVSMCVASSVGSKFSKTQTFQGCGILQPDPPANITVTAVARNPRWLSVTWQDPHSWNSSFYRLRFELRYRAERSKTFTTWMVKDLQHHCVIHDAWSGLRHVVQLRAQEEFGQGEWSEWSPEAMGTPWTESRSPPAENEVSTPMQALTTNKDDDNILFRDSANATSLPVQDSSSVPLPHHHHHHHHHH
- ASSAY_OVERVIEW: SPR Biacore; antibody from diluted cell supernatant captured by anti-human IgG on CM5, human IL6R in flow
METRIC: koff
// return the numeric value with its unit appended

Reported koff for humanized antibody hu1H7-V7 (antibody, human IgG1, kappa, V domains shown, Human IgG1 / kappa) VH: QVQLVQSGAEVKKPGASVKVSCKASGYTFTNYWMHWVRQAPGQGLEWIGEINPTNGRTNYNENFKSKVTLTVDKSTSTAYMELSSLRSEDTAVYYCARLNTHYVFDSWGQGTLVTVSS VL: EIVLTQSPGTLSLSPGERATLSCSVSSSISSNYLHWYQQKPGLSPRLLISRTSTLASGIPARFSGSGSGTEFTLTISRLQSEDFAVYYCQQGSGIPFTFGQGTKLEIKR was 0.000199 s⁻¹

Reported koff for humanized antibody hu1H7-V9 (antibody, human IgG1, kappa, V domains shown, Human IgG1 / kappa) VH: QVQLVQSGAEVKKPGASVKVSCKASGYTFTNYWMHWVRQAPGQGLEWIGEINPTNGRTNYNENFKSKVTMTVDTSTSTVYMELSSLRSEDTAVYYCARLNTHYVFDSWGQGTLVTVSS VL: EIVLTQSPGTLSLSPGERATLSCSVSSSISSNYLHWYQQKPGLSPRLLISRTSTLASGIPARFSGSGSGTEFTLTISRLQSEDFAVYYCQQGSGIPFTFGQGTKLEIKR was 0.000222 s⁻¹

Reported koff for humanized antibody hu1H7-V2 (antibody, human IgG1, kappa, V domains shown, Human IgG1 / kappa) VH: QVQLVQSGAEVKKPGASVKVSCKASGYTFTNYWMHWVRQAPGQGLEWIGEINPTNGRTNYNENFKSKVTLTRDTSTSTVYMELSSLRSEDTAVYYCARLNTHYVFDSWGQGTLVTVSS VL: EIVLTQSPGTLSLSPGERATLSCSVSSSISSNYLHWYQQKPGLSPRLLISRTSTLASGIPARFSGSGSGTEYTLTISRMQSEDFAVYYCQQGSGIPFTFGQGTKLEIKR was 0.000197 s⁻¹
